Target: ENaC (Epithelial Sodium Channel) (Mus musculus, UniProt Q61180+Q9WU38+Q9WU39)
Construct: Mouse kidney M−1 cells were cultivated in DMEM; endogenous in cells; host or cells: Mouse kidney M-1 cells, cultivated with dexamethasone on transwell filters
Experiment: Ussing Chamber assay (short circuit current, amiloride sensitive I_SC)
Format: cell-based
Details: Ussing chamber, mouse kidney M-1 cells, short circuit current, compound added to the apical solution; read-out: IC50
PROPERTY_MEASURED: IC50 (nM)

>  <MOLECULE>
Cn1cncc1CNC(=O)COc1ccc(CCC[N+]2(CCCc3ccc(OCC(=O)NCc4cncn4C)cc3)CCC[C@H](NC(=O)c3nc(Cl)c(N)nc3N)C2)cc1

>  <IC50 / nM>
18

$$$$

1 = Nc1nc(N)c(C(=O)N[C@H]2CCC[N+](CCCc3ccc(OCC(=O)NC(CO)c4cccnc4)cc3)(CCCc3ccc(OCC(=O)NC(CO)c4cccnc4)cc3)C2)nc1Cl (stereo partly shown)
2 = COc1ccc(CCC[N+]2(CCCc3ccc(C(=O)NCCCS(=O)(=O)O)cc3)CCCC(NC(=O)c3nc(Cl)c(N)nc3N)C2)cc1 (stereo not shown)
// pick larger IC50 from pair: 1 vs 2 Returns: label corresponding to the selected item.
2

A = CN(CCS(C)(=O)=O)C(=O)COc1ccc(CCC[N+]2(CCCc3ccc(OCC(=O)N(C)CCS(C)(=O)=O)cc3)CCC[C@H](NC(=O)c3nc(Cl)c(N)nc3N)C2)cc1
B = CN1CCOC(CNC(=O)COc2ccc(CCC[N+]3(CCCc4ccc(OCC(=O)NCC5CN(C)CCO5)cc4)CCC[C@H](NC(=O)c4nc(Cl)c(N)nc4N)C3)cc2)C1 (stereo partly shown)
C = COc1ccc(CCC[N@+]2(C)CCC[C@H](NC(=O)c3nc(Cl)c(N)nc3N)C2)cc1
Rank order required: IC50, descending. Returns: the labels arranged in the requested order.
C, A, B

1 = COc1ccc(OCC[N+]2(CCOc3ccc(OC)cc3)CCC[C@H](NC(=O)c3nc(Cl)c(N)nc3N)C2)cc1
2 = CN1CCC(NC(=O)COc2ccc(CCC[N+]3(CCCc4ccc(OCC(=O)NC5CCN(C)CC5)cc4)CCC[C@H](NC(=O)c4nc(Cl)c(N)nc4N)C3)cc2)CC1
3 = CC(O)CN(C)C(=O)COc1ccc(CCC[N+]2(CCCc3ccc(OCC(=O)N(C)CC(C)O)cc3)CCC[C@H](NC(=O)c3nc(Cl)c(N)nc3N)C2)cc1 (stereo partly shown)
Sort the 3 molecules by IC50; largest first, smallest last. Returns: the labels arranged in the requested order.
1, 3, 2
(1: 104 nM, 3: 70 nM, 2: 15 nM)

* * *

Target: ENaC (Epithelial Sodium Channel) (Mus musculus, UniProt Q61180+Q9WU38+Q9WU39)
Construct: Mouse kidney M−1 cells were cultivated in DMEM; endogenous in cells; host or cells: Mouse kidney M-1 cells, cultivated with dexamethasone on transwell filters
Sequence (Q61180 1-699): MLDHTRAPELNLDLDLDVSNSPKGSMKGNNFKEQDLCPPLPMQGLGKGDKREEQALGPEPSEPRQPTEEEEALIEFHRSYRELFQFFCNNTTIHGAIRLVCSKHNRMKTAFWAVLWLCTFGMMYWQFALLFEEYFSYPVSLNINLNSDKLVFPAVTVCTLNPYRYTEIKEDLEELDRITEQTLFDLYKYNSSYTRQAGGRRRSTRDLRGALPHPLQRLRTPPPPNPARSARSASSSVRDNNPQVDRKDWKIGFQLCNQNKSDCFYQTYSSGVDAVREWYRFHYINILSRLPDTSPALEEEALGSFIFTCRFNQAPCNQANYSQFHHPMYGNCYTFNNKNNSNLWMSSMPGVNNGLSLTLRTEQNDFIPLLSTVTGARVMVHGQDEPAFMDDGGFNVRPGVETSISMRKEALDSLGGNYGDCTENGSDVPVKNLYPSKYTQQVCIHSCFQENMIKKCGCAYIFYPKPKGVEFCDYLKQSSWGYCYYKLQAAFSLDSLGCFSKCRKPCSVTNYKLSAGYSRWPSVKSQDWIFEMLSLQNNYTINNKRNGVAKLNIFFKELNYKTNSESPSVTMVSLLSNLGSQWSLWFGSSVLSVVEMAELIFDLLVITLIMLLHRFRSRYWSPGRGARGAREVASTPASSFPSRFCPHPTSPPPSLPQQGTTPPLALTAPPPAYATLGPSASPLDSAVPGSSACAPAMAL
Sequence (Q9WU38 1-638): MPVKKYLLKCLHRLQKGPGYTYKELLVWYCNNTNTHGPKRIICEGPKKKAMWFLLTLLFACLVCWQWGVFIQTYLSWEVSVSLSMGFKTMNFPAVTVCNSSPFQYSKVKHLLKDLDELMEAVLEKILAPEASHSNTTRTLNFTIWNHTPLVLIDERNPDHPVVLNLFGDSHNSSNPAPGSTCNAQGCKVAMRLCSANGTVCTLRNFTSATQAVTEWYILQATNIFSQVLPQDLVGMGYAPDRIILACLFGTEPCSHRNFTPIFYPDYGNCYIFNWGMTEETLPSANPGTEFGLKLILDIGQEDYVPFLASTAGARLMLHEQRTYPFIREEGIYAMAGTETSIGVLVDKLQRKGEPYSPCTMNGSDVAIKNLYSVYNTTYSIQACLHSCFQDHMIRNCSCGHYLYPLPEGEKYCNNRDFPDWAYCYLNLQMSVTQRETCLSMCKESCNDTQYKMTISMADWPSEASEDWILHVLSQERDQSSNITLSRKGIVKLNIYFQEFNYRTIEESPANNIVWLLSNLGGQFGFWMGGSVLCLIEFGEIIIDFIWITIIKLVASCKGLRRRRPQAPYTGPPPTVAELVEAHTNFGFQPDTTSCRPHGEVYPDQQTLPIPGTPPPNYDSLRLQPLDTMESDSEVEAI
Sequence (Q9WU39 1-655): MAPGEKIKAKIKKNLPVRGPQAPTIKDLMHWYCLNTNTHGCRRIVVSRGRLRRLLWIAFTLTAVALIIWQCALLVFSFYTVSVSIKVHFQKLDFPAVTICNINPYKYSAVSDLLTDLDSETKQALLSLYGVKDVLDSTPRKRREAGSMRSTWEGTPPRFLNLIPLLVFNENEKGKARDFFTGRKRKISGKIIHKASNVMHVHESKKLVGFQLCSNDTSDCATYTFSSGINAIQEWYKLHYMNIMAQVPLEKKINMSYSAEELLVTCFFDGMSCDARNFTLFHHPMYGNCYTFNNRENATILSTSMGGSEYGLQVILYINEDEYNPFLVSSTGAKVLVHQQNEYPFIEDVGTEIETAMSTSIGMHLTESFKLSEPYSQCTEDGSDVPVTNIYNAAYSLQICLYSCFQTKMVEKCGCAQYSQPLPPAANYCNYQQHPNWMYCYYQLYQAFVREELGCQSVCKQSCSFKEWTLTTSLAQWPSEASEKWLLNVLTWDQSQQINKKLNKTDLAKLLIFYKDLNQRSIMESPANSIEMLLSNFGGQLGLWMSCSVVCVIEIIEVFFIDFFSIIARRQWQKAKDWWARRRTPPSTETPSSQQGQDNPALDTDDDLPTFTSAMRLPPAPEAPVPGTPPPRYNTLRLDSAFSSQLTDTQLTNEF
Assay: Ussing Chamber assay (short circuit current, amiloride sensitive I_SC)
Assay type: cell-based
Conditions: Ussing chamber, mouse kidney M-1 cells, short circuit current, compound added to the apical solution; read-out: IC50
PROPERTY_MEASURED: IC50 (µM)

Example molecules with recorded IC50:
>  <MOLECULE>
Nc1nc(N)c(C(=O)N[C@H]2CCC[N+](CCCc3ccc(OCC(=O)N4CCOCC4)cc3)(CCCc3ccc(OCC(=O)N4CCOCC4)cc3)C2)nc1Cl

>  <IC50, µM>
0.072

$$$$
>  <MOLECULE>
CN(C)C(=O)COc1ccc(CCC[N+]2(CCCc3ccc(OCC(=O)N(C)C)cc3)CCC[C@H](NC(=O)c3nc(Cl)c(N)nc3N)C2)cc1

>  <IC50, µM>
0.134

$$$$

A = COc1ccc(CCC[N+]2(CCCc3ccc(C(=O)NCCOCCOCCO)cc3)CCCC(NC(=O)c3nc(Cl)c(N)nc3N)C2)cc1 (centres unmarked)
B = COc1ccc(CCC[N+]2(CCCc3ccc(OC)cc3)CCC[C@@H](NC(=O)c3nc(Cl)c(N)nc3N)C2)cc1
Lower value of IC50 belongs to which: A or B ? Please indicate the selected item by its label.
B

I = CN(CCO)C(=O)COc1ccc(CCC[N+]2(CCCc3ccc(OCC(=O)N(C)CCO)cc3)CCC[C@H](NC(=O)c3nc(Cl)c(N)nc3N)C2)cc1
II = Nc1nc(N)c(C(=O)N[C@H]2CCC[N+](CCCc3ccc(OCC(=O)NC(CO)CO)cc3)(CCCc3ccc(OCC(=O)NC(CO)CO)cc3)C2)nc1Cl
III = Nc1nc(N)c(C(=O)N[C@H]2CCC[N+](CCCc3ccc(OCC(=O)NCc4ccccn4)cc3)(CCCc3ccc(OCC(=O)NCc4ccccn4)cc3)C2)nc1Cl
Sequence the entries by IC50, beginning with the highest number. // rank by listing labels in the order requested
I, II, III

I = COCCCN(C)C(=O)COc1ccc(CCC[N+]2(CCCc3ccc(OCC(=O)N(C)CCCOC)cc3)CCC[C@H](NC(=O)c3nc(Cl)c(N)nc3N)C2)cc1
II = Nc1nc(N)c(C(=O)NC2CCC[N+](CCCc3ccccc3)(CCCc3ccccc3)C2)nc1Cl (centres unmarked)
Compare I and II and name the one whose reported IC50 is smaller. Use the label to indicate which entry you chose.
II
(II: 0.015 µM, I: 0.044 µM)

Where do these numbers come from? They come from patent US9096548B2.
